Origin of the recorded values: paper PMC2756588

Molecular target: T1, Lsb4, P32793
T1 sequence (P32793 402-468, looked up): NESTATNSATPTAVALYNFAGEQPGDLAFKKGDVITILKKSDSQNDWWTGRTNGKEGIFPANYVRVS
Experiment: SPOT array
Conditions: median of control spots 397
assay metric: SPOT intensity

Example cases with answers are listed next.
TIRRRAPLSLLESHT ... 1
SSSSTPPTLPPRRIE ... 907

1 = VPKEPAPAPPPEPDM
2 = GKKVRPLLVLLLSRA
Incoming: Higher SPOT intensity between 1 and 2 ? API: response body contains the label of the selected item.
Outgoing: 2
(2: 2, 1: 0)
